- Experimental target: F protein of human metapneumovirus strain JPS02-76 (type B1), on infectious virus (human metapneumovirus, strain JPS02-76 …, UniProt Q6WB98 19-539)
- Measurement notes: cell-based or functional assay
Experimental readout: IC50, cell-to-cell spread inhibitory activity (LLC-MK2 cells stably expressing TMPRSS2) (µg/mL)
Give a bare numeral; the unit µg/mL is implied.

For orientation, consider the following solved cases.
- EV046150 (antibody, human IgG1, kappa, V domains shown) VH: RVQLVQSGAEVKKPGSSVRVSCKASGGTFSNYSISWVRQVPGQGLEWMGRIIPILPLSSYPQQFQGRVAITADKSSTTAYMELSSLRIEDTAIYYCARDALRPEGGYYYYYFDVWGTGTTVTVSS VL: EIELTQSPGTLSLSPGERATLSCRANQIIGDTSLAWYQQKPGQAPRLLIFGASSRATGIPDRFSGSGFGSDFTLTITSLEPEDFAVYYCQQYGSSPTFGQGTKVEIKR: 0.0166
- EV046116 (antibody, human IgG1, kappa, V domains shown) VH: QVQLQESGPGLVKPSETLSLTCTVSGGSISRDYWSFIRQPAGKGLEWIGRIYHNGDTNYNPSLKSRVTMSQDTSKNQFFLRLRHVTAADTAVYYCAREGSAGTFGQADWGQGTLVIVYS VL: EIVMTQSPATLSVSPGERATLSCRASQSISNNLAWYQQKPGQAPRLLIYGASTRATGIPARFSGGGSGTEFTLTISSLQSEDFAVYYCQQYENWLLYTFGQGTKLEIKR: 0.054

q: Record request: IC50, cell-to-cell spread inhibitory activity (LLC-MK2 cells stably expressing TMPRSS2) value, item EV046136 (antibody, human IgG1, kappa, V domains shown) VH: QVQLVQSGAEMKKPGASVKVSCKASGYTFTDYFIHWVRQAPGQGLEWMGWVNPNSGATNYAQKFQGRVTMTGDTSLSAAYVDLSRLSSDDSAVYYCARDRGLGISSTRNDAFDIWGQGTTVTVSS VL: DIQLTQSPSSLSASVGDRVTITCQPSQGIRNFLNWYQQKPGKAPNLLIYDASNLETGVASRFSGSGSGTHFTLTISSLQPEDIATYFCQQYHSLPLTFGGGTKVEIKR
a: 0.0522
